Data provenance is the supplement of paper PMC10307832.

System: NCI-H1563
TEST_NAME: relative viability (nuclei count vs DMSO), 5 days (fraction); higher = more cells survive
EXPERIMENTAL_CONTEXT: first compound 0.03162 µM
RECORDED_METRIC: relative viability

{"COMPOUND": "CC(C)Oc1cc(Nc2nc(N[C@@H](C)c3ccc(F)cn3)ncc2Cl)n[nH]1 [AZ23] + COc1cc2c(Oc3ccc(NC(=O)C4(C(=O)Nc5ccc(F)cc5)CC4)cc3F)ccnc2cc1OCCCN1CCOCC1 [Foretinib] (partner 0.25 µM)", "EXPERIMENTAL_RESULT": 1.01}
{"COMPOUND": "CC(C)Oc1cc(Nc2nc(N[C@@H](C)c3ccc(F)cn3)ncc2Cl)n[nH]1 [AZ23] + N=C(N)NC(=N)NCCc1ccccc1 [Phenformin] (partner 250 µM)", "EXPERIMENTAL_RESULT": 0.653}
{"COMPOUND": "CC(C)Oc1cc(Nc2nc(N[C@@H](C)c3ccc(F)cn3)ncc2Cl)n[nH]1 [AZ23] + C[C@@H](Oc1cc(-c2cnn(C3CCNCC3)c2)cnc1N)c1c(Cl)ccc(F)c1Cl [Crizotinib] (partner 1 µM)", "EXPERIMENTAL_RESULT": 0.912}

Task item: Quick one: give measured relative viability for CC(C)Oc1cc(Nc2nc(N[C@@H](C)c3ccc(F)cn3)ncc2Cl)n[nH]1 [AZ23] + CCNC(=O)c1noc(-c2cc(C(C)C)c(O)cc2O)c1-c1ccc(CN2CCOCC2)cc1 [Luminespib] (partner 0.01 µM)
Reply: 0.571

* * *

Provide the recorded relative viability for the entries that follow.
System: NCI-H1734
TEST_NAME: relative viability (nuclei count vs DMSO), 5 days (fraction); higher = more cells survive
EXPERIMENTAL_CONTEXT: first compound 0.1265 µM
One number for each entry.

For orientation, consider the following solved cases.
{"MOLECULE": "C[C@@H]1CN(CC(=O)Nc2ccc3c(c2)Cc2cccc(-c4cc(=O)cc(N5CCOCC5)o4)c2S3)C[C@H](C)O1 + COc1cc2c(Oc3ccc(NC(=O)C4(C(=O)Nc5ccc(F)cc5)CC4)cc3F)ccnc2cc1OCCCN1CCOCC1 [Foretinib] (partner 0.25 µM)", "TARGET_UNDER_TEST": "NCI-H1734", "relative viability": 0.851}
{"MOLECULE": "C[C@@H]1CN(CC(=O)Nc2ccc3c(c2)Cc2cccc(-c4cc(=O)cc(N5CCOCC5)o4)c2S3)C[C@H](C)O1 + C[C@]1(O)C[C@@H](c2nc(-c3ccc4ccc(-c5ccccc5)nc4c3)c3c(N)nccn32)C1 [Linsitinib] (partner 1 µM)", "TARGET_UNDER_TEST": "NCI-H1734", "relative viability": 0.85}
{"MOLECULE": "COc1cc(N2CCC(C(N)=O)CC2)ccc1Nc1nc(N)c(Cl)c(Nc2ccccc2S(=O)(=O)C(C)C)n1 [HG-5-88-01] + COc1cccc2cc(-c3nc([C@H]4CC[C@H](C(=O)O)CC4)n4ncnc(N)c34)[nH]c12 [OSI-027] (partner 0.5 µM)", "TARGET_UNDER_TEST": "NCI-H1734", "relative viability": 0.615}
{"MOLECULE": "COc1cc(N2CCC(C(N)=O)CC2)ccc1Nc1nc(N)c(Cl)c(Nc2ccccc2S(=O)(=O)C(C)C)n1 [HG-5-88-01] + Cc1nc(NC(=O)N2CCC[C@H]2C(N)=O)sc1-c1ccnc(C(C)(C)C(F)(F)F)c1 [Alpelisib] (partner 2 µM)", "TARGET_UNDER_TEST": "NCI-H1734", "relative viability": 0.657}
{"MOLECULE": "C[C@@H]1CN(CC(=O)Nc2ccc3c(c2)Cc2cccc(-c4cc(=O)cc(N5CCOCC5)o4)c2S3)C[C@H](C)O1 + CC(=O)c1c(C)c2cnc(Nc3ccc(N4CCNCC4)cn3)nc2n(C2CCCC2)c1=O [Palbociclib] (partner 0.5 µM)", "TARGET_UNDER_TEST": "NCI-H1734", "relative viability": 0.354}
{"MOLECULE": "COc1cc(N2CCC(C(N)=O)CC2)ccc1Nc1nc(N)c(Cl)c(Nc2ccccc2S(=O)(=O)C(C)C)n1 [HG-5-88-01] + CCNC(=O)c1noc(-c2cc(C(C)C)c(O)cc2O)c1-c1ccc(CN2CCOCC2)cc1 [Luminespib] (partner 0.01 µM)", "TARGET_UNDER_TEST": "NCI-H1734", "relative viability": 0.166}
{"MOLECULE": "Clc1ccc(Nc2nnc(Cc3ccncc3)c3ccccc23)cc1 [Vatalanib] + NC(=O)Nc1cc(-c2cccc(F)c2)sc1C(=O)N[C@H]1CCCNC1 [AZD7762] (partner 0.2 µM)", "TARGET_UNDER_TEST": "NCI-H1734", "relative viability": 0.484}
{"MOLECULE": "COc1cc(N2CCC(C(N)=O)CC2)ccc1Nc1nc(N)c(Cl)c(Nc2ccccc2S(=O)(=O)C(C)C)n1 [HG-5-88-01] + O=C(c1cc(Cc2n[nH]c(=O)c3ccccc23)ccc1F)N1CCN(C(=O)C2CC2)CC1 [Olaparib] (partner 8 µM)", "TARGET_UNDER_TEST": "NCI-H1734", "relative viability": 0.583}

Dear colleague, could you send me relative viability for each of the items below? Thanks.
1. Clc1ccc(Nc2nnc(Cc3ccncc3)c3ccccc23)cc1 [Vatalanib] + Nc1ncn([C@H]2C[C@H](O)[C@@H](CO)O2)c(=O)n1 [Decitabine] (partner 2 µM)
2. COc1cc(N2CCC(C(N)=O)CC2)ccc1Nc1nc(N)c(Cl)c(Nc2ccccc2S(=O)(=O)C(C)C)n1 [HG-5-88-01] + C[C@]1(O)C[C@@H](c2nc(-c3ccc4ccc(-c5ccccc5)nc4c3)c3c(N)nccn32)C1 [Linsitinib] (partner 1 µM)
3. C[C@@H]1CN(CC(=O)Nc2ccc3c(c2)Cc2cccc(-c4cc(=O)cc(N5CCOCC5)o4)c2S3)C[C@H](C)O1 + CC(=O)Nc1cccc(-n2c(=O)n(C3CC3)c(=O)c3c(Nc4ccc(I)cc4F)n(C)c(=O)c(C)c32)c1 [Trametinib] (partner 0.02 µM)
4. COc1cc(N2CCC(C(N)=O)CC2)ccc1Nc1nc(N)c(Cl)c(Nc2ccccc2S(=O)(=O)C(C)C)n1 [HG-5-88-01] + Nc1nc2[nH]cc(CCc3ccc(C(=O)N[C@@H](CCC(=O)O)C(=O)O)cc3)c2c(=O)[nH]1 [Pemetrexed] (partner 0.2 µM)
5. Clc1ccc(Nc2nnc(Cc3ccncc3)c3ccccc23)cc1 [Vatalanib] + CC(=O)Nc1cccc(-n2c(=O)n(C3CC3)c(=O)c3c(Nc4ccc(I)cc4F)n(C)c(=O)c(C)c32)c1 [Trametinib] (partner 0.02 µM)

Reply:
1. 0.51
2. 0.851
3. 0.756
4. 0.423
5. 0.673

* * *

Tested on: HCC-366
TEST_NAME: relative viability (nuclei count vs DMSO), 5 days (fraction); higher = more cells survive
EXPERIMENTAL_CONTEXT: first compound 0.1265 µM
Provide the recorded relative viability for the entries that follow.
Answers are plain numbers.

For orientation, consider the following solved cases.
{"MOLECULE": "C[C@@H]1CN(CC(=O)Nc2ccc3c(c2)Cc2cccc(-c4cc(=O)cc(N5CCOCC5)o4)c2S3)C[C@H](C)O1 + CC1(C)CCC(c2ccc(Cl)cc2)=C(CN2CCN(c3ccc(C(=O)NS(=O)(=O)c4ccc(N[C@H](CCN5CCOCC5)CSc5ccccc5)c(S(=O)(=O)C(F)(F)F)c4)cc3)CC2)C1 [Navitoclax] (partner 0.5 µM)", "TARGET_UNDER_TEST": "HCC-366", "relative viability": 1.08}
{"MOLECULE": "C[C@@H]1CN(CC(=O)Nc2ccc3c(c2)Cc2cccc(-c4cc(=O)cc(N5CCOCC5)o4)c2S3)C[C@H](C)O1 + CS(=O)(=O)CCNCc1ccc(-c2ccc3ncnc(Nc4ccc(OCc5cccc(F)c5)c(Cl)c4)c3c2)o1 [Lapatinib] (partner 2 µM)", "TARGET_UNDER_TEST": "HCC-366", "relative viability": 0.974}
{"MOLECULE": "C[C@@H]1CN(CC(=O)Nc2ccc3c(c2)Cc2cccc(-c4cc(=O)cc(N5CCOCC5)o4)c2S3)C[C@H](C)O1 + CC(C)C[C@H](NC(=O)[C@H](Cc1ccccc1)NC(=O)c1cnccn1)B(O)O [Bortezomib] (partner 0.002 µM)", "TARGET_UNDER_TEST": "HCC-366", "relative viability": 1.04}
{"MOLECULE": "Clc1ccc(Nc2nnc(Cc3ccncc3)c3ccccc23)cc1 [Vatalanib] + Cc1nc(NC(=O)N2CCC[C@H]2C(N)=O)sc1-c1ccnc(C(C)(C)C(F)(F)F)c1 [Alpelisib] (partner 2 µM)", "TARGET_UNDER_TEST": "HCC-366", "relative viability": 0.346}

Continue with the molecule presented below.
Task item: Name the recorded relative viability of C[C@@H]1CN(CC(=O)Nc2ccc3c(c2)Cc2cccc(-c4cc(=O)cc(N5CCOCC5)o4)c2S3)C[C@H](C)O1 + C[C@]1(O)C[C@@H](c2nc(-c3ccc4ccc(-c5ccccc5)nc4c3)c3c(N)nccn32)C1 [Linsitinib] (partner 1 µM) , assay system HCC-366.
Reply: 0.622
